Subject Of Test: TNFα / TNFα receptor (TNFα R1/Fc) (Homo sapiens)
Construct: purchased R&D Systems
Sequence (P01375 77-233 limits assumed, species assumed): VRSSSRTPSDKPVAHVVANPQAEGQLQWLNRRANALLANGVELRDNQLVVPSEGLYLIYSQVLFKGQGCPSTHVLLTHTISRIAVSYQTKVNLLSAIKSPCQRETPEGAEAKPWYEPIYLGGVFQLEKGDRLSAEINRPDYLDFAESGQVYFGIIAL
Test Protocol: Inhibition of binding of TNFα to the TNFα receptor (plate ELISA competition)
Measurement Conditions: Table 2; read-out: Activity (IC50, inhibition of TNFα binding to TNFα R1/Fc)
Numbered stars: 1 amine (or outer) side, 2 acyl side, 3 side chain; on linkers, the order of the positions; unused ones are H or OH. Bridge positions count the residues as written; N and C are the ends. Square brackets hold non-standard residues; d marks the D form. Peptide text beside a SMILES is read from it. dPhe(4-NH2) = Nc1ccc(C[C@@H](N)C(=O)O)cc1; Phe(4-Br) = N[C@@H](Cc1ccc(Br)cc1)C(=O)O; dAla(2-furyl) = N[C@H](Cc1ccco1)C(=O)O; d2Thi = N[C@H](Cc1cccs1)C(=O)O; Suc = O=C(CCC(=O)[*:2])[*:1]
For each entry below, report its IC50 value.

Compound	Subject Of Test	IC50
O=C1CCC(=O)N[C@H](Cc2cccs2)C(=O)N[C@@H](Cc2ccc(Br)cc2)C(=O)N[C@H](Cc2ccco2)C(=O)N[C@@H](C(=O)O)Cc2ccc(cc2)N1 [Compound 159] ([d2Thi][Phe(4-Br)][dAla(2-furyl)][dPhe(4-NH2)]-OH; linker N-4 via Suc)	TNFα / TNFα receptor (TNFα R1/Fc) (Homo sapiens)	10 to 30 µM

We now examine a further compound.
For the compound O=C1COc2ccc(cc2)C[C@@H](C(=O)N[C@@H](Cc2ccc(O)cc2)C(=O)O)NC(=O)[C@H](CCc2ccccc2)NC(=O)[C@@H](Cc2ccc(-c3ccccc3)cc2)NC(=O)[C@H](Cc2ccc(-c3ccncc3)cc2)N1 , what IC50 is on record?
< 10 µM

----------
I'd appreciate it if you could supply pIC50 values for the items below.
Subject Of Test: TNFα / TNFα receptor (TNFα R1/Fc) (Homo sapiens)
Construct: purchased R&D Systems
Test Protocol: Inhibition of binding of TNFα to the TNFα receptor (plate ELISA competition)
Measurement Conditions: Table 2; read-out: Activity (IC50, inhibition of TNFα binding to TNFα R1/Fc)
pIC50: −log10 of the molar value. Numbered stars: 1 amine (or outer) side, 2 acyl side, 3 side chain; on linkers, the order of the positions; unused ones are H or OH. Bridge positions count the residues as written; N and C are the ends. Square brackets hold non-standard residues; d marks the D form. Peptide text beside a SMILES is read from it. Phe(4-COOH) = N[C@@H](Cc1ccc(C(=O)O)cc1)C(=O)O; Bip = N[C@@H](Cc1ccc(-c2ccccc2)cc1)C(=O)O; Phe(4-NH2) = Nc1ccc(C[C@H](N)C(=O)O)cc1; d(hPhe) = N[C@H](CCc1ccccc1)C(=O)O; Cha = N[C@@H](CC1CCCCC1)C(=O)O; d2Thi = N[C@H](Cc1cccs1)C(=O)O; Suc = O=C(CCC(=O)[*:2])[*:1]; Dap = NC[C@H](N)C(=O)O

# example entries with known answers
Molecule	Subject Of Test	Property Measured	Result
O=C1CCC(=O)N[C@H](Cc2cccs2)C(=O)N[C@@H](Cc2ccc(-c3ccccc3)cc2)C(=O)N[C@H](CO)C(=O)N[C@H](C(=O)O)Cc2ccc(cc2)N1 [Compound 61] ([d2Thi][Bip][dS][Phe(4-NH2)]-OH; linker N-4 via Suc)	TNFα / TNFα receptor (TNFα R1/Fc) (Homo sapiens)	pIC50	< 4.00
O=C1COc2ccc(cc2)C[C@@H](C(=O)O)NC(=O)[C@H](CCc2ccccc2)NC(=O)[C@@H](Cc2ccc(-c3ccccc3)cc2)NC(=O)[C@H](Cc2ccccn2)N1	TNFα / TNFα receptor (TNFα R1/Fc) (Homo sapiens)	pIC50	> 5.00

I have 6 molecules here; please give me pIC50 for each one.
1. O=C1CCC(=O)N[C@@H](CC2CCCCC2)C(=O)N[C@@H](Cc2ccc(-c3ccccc3)cc2)C(=O)N[C@H](CCc2ccccc2)C(=O)N[C@H](C(=O)O)Cc2ccc(cc2)N1 [Compound 191] ([Cha][Bip][d(hPhe)][Phe(4-NH2)]-OH; linker N-4 via Suc)
2. CC(=O)N[C@H]1CNC(=O)c2ccc(cc2)C[C@@H](C(=O)O)NC(=O)[C@@H](Cc2ccccc2)NC(=O)[C@H](Cc2ccc(-c3ccccc3)cc2)NC(=O)[C@@H](CCc2ccccc2)NC1=O [Compound 266] (Ac-[Dap][d(hPhe)][Bip][dF][Phe(4-COOH)]-OH; lactam 1-5)
3. O=C(O)[C@@H]1Cc2ccc(cc2)NC(=O)[C@H](O)[C@@H](O)C(=O)N[C@H](Cc2ccsc2)C(=O)N[C@@H](Cc2ccc(-c3ccccc3)cc2)C(=O)N[C@H](Cc2ccccc2)C(=O)N1
4. O=C1COc2ccc(cc2)C[C@@H](C(=O)O)NC(=O)[C@@H](CCc2ccccc2)NC(=O)[C@H](Cc2ccc(-c3ccccc3)cc2)NC(=O)[C@@H](Cc2cccc(C(F)(F)F)c2)N1
5. O=C1CCC(=O)N[C@H](Cc2cccs2)C(=O)N[C@@H](Cc2ccc(-c3ccccc3)cc2)C(=O)N[C@H](Cc2ccccc2)C(=O)N[C@H](C(=O)N[C@@H](Cc2ccccc2)C(=O)O)Cc2ccc(cc2)N1 [Compound 10] ([d2Thi][Bip][dF][Phe(4-NH2)]F-OH; linker N-4 via Suc)
6. COc1ccc(C[C@H]2NC(=O)COc3ccc(cc3)C[C@@H](C(=O)O)NC(=O)[C@@H](CCc3ccccc3)NC(=O)[C@H](Cc3ccc(-c4ccccc4)cc3)NC2=O)cc1

> 5.00
< 4.00
> 5.00
> 5.00
4.52 to 5.00
< 4.00

All values here come from patent US8338565B2.
